Answer each item with its documented pIC50.
# System: A549
# experiment summary: Antiproliferative activity against human A549 cells after 72 hrs by SRB assay
# Format: functional, cell-based
# condition summary: A549, 72 h
Worth noting: pIC50 values are minus log10 of concentrations stated in mol/L.

### Prompt For the record CC[C@H]1CN2CCc3cc(O)c(OC)cc3[C@@H]2C[C@@H]1C[C@H]1NCCc2c1[nH]c1ccc(O)cc21 , what value of pIC50 is listed for A549?
### Response 6.21

### Prompt For the record CC[C@H]1CN2CCc3c(cc(OC)c(OC)c3O)[C@@H]2C[C@@H]1C[C@H]1NCCc2c1[nH]c1ccc(O)cc21 , what value of pIC50 is listed for A549?
### Response 6.55

====

# Tested on: A549
# experiment summary: Antiproliferative activity against human A549 cells after 48 hrs by SRB assay
# Format: functional, cell-based
# condition summary: A549, 48 h
Answer each item with its documented pIC50.
Worth noting: pIC50 values are minus log10 of concentrations stated in mol/L.

### Prompt Query: pIC50; subject: CC[C@H]1CN2CCc3c(cc(OC)c(OC)c3O)[C@@H]2C[C@@H]1C[C@H]1NCCc2c1[nH]c1ccc(O)cc21
### Response 6.64

### Prompt Query: pIC50; subject: CC[C@H]1CN2CCc3cc(O)c(OC)cc3[C@@H]2C[C@@H]1C[C@H]1NCCc2c1[nH]c1ccc(O)cc21
### Response 6.52

====

# experiment summary: Antiproliferative activity against human KBVIN cells after 24 hrs by SRB assay
# Type: functional, cell-based
pIC50: −log10 of the molar value.
Answer each item with its documented pIC50.

### Prompt Query: pIC50; subject: COc1cccc2c1C(=O)c1c(O)c3c(c(O)c1C2=O)C[C@@](O)(C(=O)CO)C[C@@H]3O[C@H]1C[C@H](N)[C@H](O)[C@H](C)O1
### Response < 6.00

### Prompt Query: pIC50; subject: CC[C@H]1CN2CCc3cc(O)c(OC)cc3[C@@H]2C[C@@H]1C[C@H]1NCCc2c1[nH]c1ccc(O)cc21
### Response < 5.00

### Prompt Query: pIC50; subject: CC(=O)O[C@H]1C(=O)[C@@]2(C)[C@H]([C@H](OC(=O)c3ccccc3)[C@]3(O)C[C@H](OC(=O)[C@H](O)[C@@H](NC(=O)c4ccccc4)c4ccccc4)C(C)=C1C3(C)C)[C@]1(OC(C)=O)CO[C@@H]1C[C@@H]2O
### Response < 5.52

### Prompt Query: pIC50; subject: CC[C@H]1CN2CCc3c(cc(OC)c(OC)c3O)[C@@H]2C[C@@H]1C[C@H]1NCCc2c1[nH]c1ccc(O)cc21
### Response 5.05

====

# experiment summary: Antiproliferative activity against human KBVIN cells after 48 hrs by SRB assay
# Assay type: functional, cell-based
recorded metric: IC50 (µM)
Answer format: numeric, µM implied, no suffix.

### Prompt Query: IC50; subject: CC[C@H]1CN2CCc3c(cc(OC)c(OC)c3O)[C@@H]2C[C@@H]1C[C@H]1NCCc2c1[nH]c1ccc(O)cc21
### Response 11.1

### Prompt Query: IC50; subject: CC(=O)O[C@H]1C(=O)[C@@]2(C)[C@H]([C@H](OC(=O)c3ccccc3)[C@]3(O)C[C@H](OC(=O)[C@H](O)[C@@H](NC(=O)c4ccccc4)c4ccccc4)C(C)=C1C3(C)C)[C@]1(OC(C)=O)CO[C@@H]1C[C@@H]2O [PACLITAXEL]
### Response 2.88

Recorded values, source ChEMBL document CHEMBL4196149.
